- tested.target: Cytochrome P450 2C19 (Homo sapiens)
- Sequence (P33261 whole entry): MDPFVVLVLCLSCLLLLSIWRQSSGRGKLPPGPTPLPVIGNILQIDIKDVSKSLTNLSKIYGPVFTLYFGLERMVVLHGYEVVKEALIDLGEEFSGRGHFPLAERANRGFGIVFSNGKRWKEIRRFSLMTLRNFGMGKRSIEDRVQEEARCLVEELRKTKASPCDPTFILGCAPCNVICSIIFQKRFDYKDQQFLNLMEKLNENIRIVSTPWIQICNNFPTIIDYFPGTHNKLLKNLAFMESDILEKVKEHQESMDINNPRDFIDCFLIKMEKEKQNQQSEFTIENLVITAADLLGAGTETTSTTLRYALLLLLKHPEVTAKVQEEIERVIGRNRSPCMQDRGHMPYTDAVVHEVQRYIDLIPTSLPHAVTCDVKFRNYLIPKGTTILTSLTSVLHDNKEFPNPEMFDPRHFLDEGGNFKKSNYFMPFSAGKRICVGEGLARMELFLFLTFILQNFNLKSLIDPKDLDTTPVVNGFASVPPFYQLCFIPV
- assay.comment: Cytochrome panel assay with activity outcomes. Panel member name: p450-cyp2c19 Compounds with AC50 equal or less than 10 uM are considered active
- Assay type: functional
- experimental.setup: read-out: AC50
Recorded measurements of AC50, one per entry
assay.endpoint: AC50

| compound | tested.target | observed |
| --- | --- | --- |
| COC(=O)[C@@]1(Cc2ccc(F)cc2)[C@H]2c3cc(C(=O)N(C)C)n(CCCNc4ccc(C(F)(F)F)cc4Cl)c3C[C@H]2CN1C(=O)c1ccccc1 | Cytochrome P450 2C19 (Homo sapiens) | 25.1 µM (inconclusive) |
| COc1ccc(CNCCc2ccccc2)cc1OCC(N)=O | Cytochrome P450 2C19 (Homo sapiens) | 6.31 µM (inconclusive) |
| CCc1c2c(nc3ccc(OC)cc13)COC2 | Cytochrome P450 2C19 (Homo sapiens) | 20 µM (inconclusive) |
| Cc1c(C(c2cccc([N+](=O)[O-])c2O)c2c(C)n(C)n(-c3ccccc3)c2=O)c(=O)n(-c2ccccc2)n1C | Cytochrome P450 2C19 (Homo sapiens) | 35.5 µM (inconclusive) |
| O=C(N/N=C\c1ccc(-c2ccccc2[N+](=O)[O-])o1)C1COc2cc3ccccc3cc2O1 (centres undefined) | Cytochrome P450 2C19 (Homo sapiens) | 1.12 µM (inconclusive) |
| O=c1c(Cc2ccccc2)c(O)nc2n1CCS2 | Cytochrome P450 2C19 (Homo sapiens) | 14.1 µM (inconclusive) |
| Cn1c2c(c(=O)n(C)c1=O)C(C(F)(F)F)(C(F)(F)F)NC(c1ccc(Cl)cc1)=N2 | Cytochrome P450 2C19 (Homo sapiens) | 2.82 µM (inconclusive) |
| COCCn1c(=O)c(C)nc2cnc(Oc3ccc(OC)cc3)nc21 | Cytochrome P450 2C19 (Homo sapiens) | 39.8 µM (inconclusive) |
| CC(C)c1ccc(Cn2ccc3c4c(N)nc(NC5CC5)nc4ccc32)cc1 | Cytochrome P450 2C19 (Homo sapiens) | 31.6 µM (inconclusive) |

====

Recorded measurements of EC50, one per entry
- tested.target: Zinc finger protein mex-5 (Caenorhabditis elegans, UniProt Q9XUB2)
- Sequence (Q9XUB2 whole entry): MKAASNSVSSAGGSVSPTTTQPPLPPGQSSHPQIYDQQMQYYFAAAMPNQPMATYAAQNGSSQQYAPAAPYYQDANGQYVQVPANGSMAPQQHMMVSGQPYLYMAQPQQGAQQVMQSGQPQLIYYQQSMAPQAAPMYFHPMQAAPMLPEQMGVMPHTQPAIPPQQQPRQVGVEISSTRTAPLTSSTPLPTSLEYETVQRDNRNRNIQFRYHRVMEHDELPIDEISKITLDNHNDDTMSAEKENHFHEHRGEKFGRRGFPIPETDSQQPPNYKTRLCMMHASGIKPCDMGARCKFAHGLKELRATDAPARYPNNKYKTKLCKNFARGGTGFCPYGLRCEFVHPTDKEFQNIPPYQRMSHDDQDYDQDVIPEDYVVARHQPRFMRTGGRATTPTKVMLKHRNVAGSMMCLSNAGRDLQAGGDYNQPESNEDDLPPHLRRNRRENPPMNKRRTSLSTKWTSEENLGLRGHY
- assay.comment: potency of MEX-5 RNA-binding blockers – biochemical, C. elegans, fluorescence polarization, dose response (AID 1960)
The source made the active and inactive calls.

| compound | EC50 |
| --- | --- |
| CC(=O)N1CCc2c(sc(NC(=O)C3CCCN3S(=O)(=O)c3cccs3)c2C(N)=O)C1 (centres undefined) | 5.83 µM (active) |
| Cc1ccc(S(=O)(=O)Nc2ccccc2F)cc1C(=O)NNC(=O)c1ccccc1O | 1.75 µM (inconclusive) |
| C[C@@H]1Cc2c(O)c(O)cc(O)c2C(=O)O1 | 13.5 µM (active) |
| Cc1ccc(N2C(=O)/C(=C/c3ccc(CN(CCC#N)S(C)(=O)=O)o3)C(=O)NC2=S)cc1 | 37.8 µM (active) |
| Nc1nnc(C(=O)c2ccccc2N)s1 | 3.86 µM (active) |
| CCc1ccc(/C=C2\SC(=S)N(CCCC(=O)Nc3ccccn3)C2=O)cc1 | 24.6 µM (active) |
| COc1ccccc1NC(=O)/C(C#N)=C/c1cc([N+](=O)[O-])ccc1N1CCCC1 | 4.59 µM (inconclusive) |
| COc1ccccc1C1C(C(C)=O)=C(C)N=c2s/c(=C\c3cc(OC)c(OC)c(OC)c3)c(=O)n21 (centres undefined) | > 300 µM (not active) |
| CC(=O)C1=C(c2ccccc2)N(C(C)=O)n2c(C)nnc2S1 | 10.7 µM (active) |

// provenance: ChEMBL document CHEMBL1201862
